measuredOn: human CB1 receptor (Homo sapiens)
Sequence (P21554 whole entry): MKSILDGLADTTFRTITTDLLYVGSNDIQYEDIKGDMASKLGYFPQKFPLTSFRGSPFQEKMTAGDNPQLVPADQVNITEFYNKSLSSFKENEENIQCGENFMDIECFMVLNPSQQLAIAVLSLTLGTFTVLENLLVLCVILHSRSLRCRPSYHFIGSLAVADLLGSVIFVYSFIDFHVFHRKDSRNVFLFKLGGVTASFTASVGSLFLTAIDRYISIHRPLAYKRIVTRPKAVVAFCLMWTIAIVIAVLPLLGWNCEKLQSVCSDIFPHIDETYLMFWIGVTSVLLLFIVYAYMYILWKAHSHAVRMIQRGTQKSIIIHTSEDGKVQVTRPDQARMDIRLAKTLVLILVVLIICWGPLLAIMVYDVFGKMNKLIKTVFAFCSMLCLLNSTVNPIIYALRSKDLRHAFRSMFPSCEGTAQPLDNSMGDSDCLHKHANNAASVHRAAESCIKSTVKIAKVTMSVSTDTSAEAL
assayMethodText: [35S] GTPγS binding on membranes of CHO cells expressing the human CB1 receptor (agonism)
Format: biochemical
Set-up: expressed in transfected cells; membrane preparation
runConditions: GTPγS EC50, human CB1, CHO cell membranes
Hi there, I'd appreciate the recorded log10 of EC50 for every entry that follows.
Form field - Quantity: EC50; Unit: µM; Scale: log10

Solved entries (count: 3):
{"molecule": "CC(C)(C)[C@H](NC(=O)c1nn(Cc2ccc(F)cc2)c2ccccc12)C(=O)N1CCC(F)(F)CC1", "endpointName": "log10 of EC50", "endpointValue": -1.56}
{"molecule": "CC(C)(C)C(NC(=O)c1nn(Cc2ccc(C#N)cc2F)c2ccccc12)C(=O)NCCCO (stereo not drawn)", "endpointName": "log10 of EC50", "endpointValue": -1.38}
{"molecule": "Cc1nc(CNC(=O)C(NC(=O)c2nn(Cc3ccc(F)cc3)c3ccccc23)C(C)(C)C)no1 (stereo not drawn)", "endpointName": "log10 of EC50", "endpointValue": -1.88}

Required: log10 of EC50, one value per molecule below.
1. CC(C)(C)C(NC(=O)c1nn(Cc2ccc(F)cc2)c2ccccc12)C(=O)NCC(O)CO (stereo not drawn) [Example 79]
2. CC(C)(C)C(NC(=O)c1nn(Cc2ccc(C#N)cc2F)c2ccccc12)C(N)=O (stereo not drawn)
3. NC(=O)[C@@H](NC(=O)c1nn(Cc2ccc(F)cc2)c2ccccc12)c1ccccc1
4. CC(C)(C)[C@H](NC(=O)c1nn(Cc2ccc(F)cc2)c2ccccc12)C(=O)N1CCC[C@@H]1CO

-1.57
-1.47
-0.53
-2.81

Each recorded value in this set is attributed to patent US20110028447A1.
